Give measured melting point for each item. Keep answers brief.
The reply should contain only the number, in °C.

q: Find the recorded melting point belonging to `COc1nc(Nc2cccn3c(C)c(-c4ccccc4Cl)nc23)ccc1-n1cnc(C)n1` and report it.
a: 250.3

q: Find the recorded melting point belonging to `COc1cc(Nc2cccn3cc(-c4cc(C#N)ccc4C)nc23)ccc1-n1cnc(C)c1` and report it.
a: 127.5

q: Find the recorded melting point belonging to `COc1cc(Nc2cccn3cc(C)nc23)ccc1-n1cncn1` and report it.
a: 147.5

q: Find the recorded melting point belonging to `Cc1ncn(-c2ccc(Nc3cccn4c(C)c(C)nc34)cc2)n1` and report it.
a: 230.6

q: Find the recorded melting point belonging to `COc1cc(Nc2cccn3c(C)c(-c4ccccc4)nc23)ccc1-n1cnc(C)c1` and report it.
a: 177.8

q: Find the recorded melting point belonging to `COc1nc(Nc2cc(C(C)C)nn3cc(-c4ccccc4Cl)nc23)ccc1-n1cnc(C)c1` and report it.
a: 179.3

q: Find the recorded melting point belonging to `CCc1cn(-c2ccc(Nc3cccn4c(C)c(-c5cccc(OC)c5)nc34)cc2OC)cn1` and report it.
a: 159.9

q: Find the recorded melting point belonging to `Cc1cn2cccc(Nc3ccc(-n4cnc(C)n4)cc3)c2n1` and report it.
a: 213.1

q: Find the recorded melting point belonging to `COc1cccc(-c2nc3c(Nc4ccc(-n5ccnc5)c(OC)c4)cccn3c2C)c1` and report it.
a: 124.2

* * *

- Test system: Aβtotal
- Procedure Text: Screening for γ-secretase-modulating activity, Method 2: Aβtotal Alphalisa in supernatant of SKNBE2 cells carrying APP 695 wild type (Table 12c)
- Type: cell-based
- Experimental Context: Homo sapiens, Method 2, Table 12c, incubated overnight
Assay Metric: pIC50
Friendly reminder that pIC50 comes from taking -log10 of the concentration in mol/L.

q: Find the recorded pIC50 belonging to `Cc1cn(-c2ccc(Nc3cccn4cc(C)nc34)cc2F)cn1` and report it.
a: 5.21

q: Find the recorded pIC50 belonging to `COc1cc(Nc2cccn3cc(-c4cc(C#N)ccc4C)nc23)ccc1-n1cnc(C)c1` and report it.
a: 5.18

q: Find the recorded pIC50 belonging to `COc1cc(Nc2cccn3cc(-c4cc(CN)ccc4C)nc23)ccc1-n1cnc(C)c1` and report it.
a: 5.69

q: Find the recorded pIC50 belonging to `COc1cc(Nc2cccn3cc(-c4ccc(F)cc4)nc23)ccc1-n1cnc(C)c1` and report it.
a: 5.13

* * *

- System: Aβtotal
- Procedure Text: Screening for γ-secretase-modulating activity, Method 2: Aβtotal Alphalisa in supernatant of SKNBE2 cells carrying APP 695 wild type (Table 12c)
- Type: cell-based
- Experimental Context: Homo sapiens, Method 2, Table 12c, incubated overnight
Give measured IC50 for each item. Keep answers brief.

q: Find the recorded IC50 belonging to `COc1cc(Nc2cccn3cc(-c4ccccc4C)nc23)ccc1-n1cnc(C)n1` and report it.
a: > 3.02 µM

q: Find the recorded IC50 belonging to `CC(=O)N(C)Cc1c(-c2ccccc2Cl)nc2c(Nc3ccc(-n4cnc(C)c4)c(F)c3)cccn12` and report it.
a: > 10 µM

q: Find the recorded IC50 belonging to `COc1nc(Nc2cccn3c(C)c(-c4ccccc4Cl)nc23)ccc1-n1cnc(C)n1` and report it.
a: > 10 µM

q: Find the recorded IC50 belonging to `COc1cc(Nc2cccn3cc(C)nc23)ccc1-n1cnc(C)c1` and report it.
a: > 10 µM

q: Find the recorded IC50 belonging to `COc1nc(Nc2cccn3cc(CC(F)(F)F)nc23)ccc1-n1cnc(C)c1` and report it.
a: > 10 µM

q: Find the recorded IC50 belonging to `CCC(=O)c1cn2cccc(Nc3ccc(-n4cnc(C)c4)c(OC)c3)c2n1` and report it.
a: > 10 µM

Data credit: patent US8546440B2
